EXPERIMENTAL TARGET: BRD4 short isoform (Homo sapiens)
Construct: endogenous in cells; host or cells: MDA-MB-468
MEASUREMENT NOTES: BRD4 degradation assay (Western blot, MDA-MB-468 cells), short isoform
Format: cell-based
CONDITION LABEL: 24 h, 0.1 μM, MDA-MB-468, n = 2
ASSAY ENDPOINT: % Mean Degradation of BRD4 (%)

P: Cc1sc2c(c1C)C(c1ccc(Cl)cc1)=N[C@@H](CC(=O)NCCOCCOCCNC(=O)[C@@]1(C)CCCC[C@H]1C(=O)N1CCc3c(Cl)ccc(OCc4nnn(C)c4C)c3[C@H]1CN1CC3(CC3)CC1=O)c1nnc(C)n1-2 [Comparative Example 3, reference compound]
Q: Cc1sc2c(c1C)C(c1ccc(Cl)cc1)=N[C@@H](CC(=O)NCCOCCC(=O)NCCOCc1c(COc3ccc(Cl)c4c3[C@@H](CN3CC5(CC5)CC3=O)N(C(=O)[C@@H]3CCCC[C@]3(C)C(=O)O)CC4)nnn1C)c1nnc(C)n1-2 [Example 5]
R: Cc1sc2c(c1C)C(c1ccc(Cl)cc1)=N[C@@H](CC(=O)NCC(=O)NCCNC(=O)[C@@]1(C)CCCC[C@H]1C(=O)N1CCc3c(Cl)ccc(OCc4nnn(C)c4C)c3[C@H]1CN1CC3(CC3)CC1=O)c1nnc(C)n1-2 [Comparative Example 1, reference compound]
S: Cc1sc2c(c1C)C(c1ccc(Cl)cc1)=N[C@@H](CC(=O)NCC(=O)NCCOCc1c(COc3ccc(Cl)c4c3[C@@H](CN3CC5(CC5)CC3=O)N(C(=O)[C@@H]3CCCC[C@]3(C)C(=O)O)CC4)nnn1C)c1nnc(C)n1-2 [Example 3]
Inquiry: Ranking field: % Mean Degradation of BRD4; order: falling. Reply with the labels, ordered as the question asks.
Reply text: S, R, P, Q
(S: 31%, R: 18%, P: 5%, Q: −5%)
